- Tested on: Rattus norvegicus
- Assay Method Text: Antiinflammatory activity against carrageenan-induced paw edema in rat at 100 mg/kg, po administered 1 hr before carrageenan challenge measured after 4 hrs relative to control
- Assay type: functional
Below, each entry is listed alongside its reported Activity.

Molecule: COc1cccc(-c2cc(C(=O)NCCCN3CCN(c4ccccc4)CC3)[nH]n2)c1
Unit Abbrev: %
Activity: 64.4
//
Molecule: O=C(NCCCN1CCN(c2ccccc2)CC1)c1cc(-c2ccc([N+](=O)[O-])cc2)n[nH]1
Unit Abbrev: %
Activity: 72.2
//
Molecule: O=C(NCCCN1CCN(c2ccccc2)CC1)c1cc(-c2ccccc2)n[nH]1
Unit Abbrev: %
Activity: 58.8
//
Molecule: Cc1ccc(-c2cc(C(=O)NCCCN3CCN(c4ccccc4)CC3)[nH]n2)cc1
Unit Abbrev: %
Activity: 63.3
//
Molecule: O=C(NCCCN1CCN(c2ccccc2)CC1)c1cc(-c2cccc([N+](=O)[O-])c2)n[nH]1
Unit Abbrev: %
Activity: 75.5
//
Molecule: COc1ccc(-c2cc(C(=O)NCCCN3CCN(c4ccccc4)CC3)[nH]n2)cc1
Unit Abbrev: %
Activity: 70
//
Molecule: Cc1cccc(-c2cc(C(=O)NCCCN3CCN(c4ccccc4)CC3)[nH]n2)c1
Unit Abbrev: %
Activity: 70
//
Molecule: CC(C)Cc1ccc(C(C)C(=O)O)cc1 (stereo not drawn)
Unit Abbrev: %
Activity: 63.3

These measurements were taken from ChEMBL document CHEMBL1795307.
